System: Hepatotoxicity; note: call rule not given here
reported_metric: HepSE_hepatitis
# print the numeric value only

Solved entries (count: 6):
> print(dat)
                                   compound  observed.measurement
1  CO/N=C(\C(=O)N[C@@H]1C(=O)N2C(C(=O)OCOC(=O)C(C)(C)C)=C(/C=C\c3scnc3C)CS[C@H]12)c1csc(N)n1 [CEFDITOREN PIVOXIL]                     0
2  COc1ccc(-c2ccc3cc(C(=O)O)ccc3c2)cc1C12CC3CC(CC(C3)C1)C2                     1
3  Cc1cn([C@H]2C[C@H](O)[C@@H](CO)O2)c(=O)[nH]c1=O [DOXRIBTIMINE]                     1
4  CN1C[C@H](C(=O)N[C@]2(C)O[C@@]3(O)[C@@H]4CCCN4C(=O)[C@H](Cc4ccccc4)N3C2=O)C=C2c3cccc4[nH]cc(c34)C[C@H]21 [ERGOTAMINE]                     0
5  O=C(O)c1ccc(-n2nc(-c3ccccc3O)nc2-c2ccccc2O)cc1 [DEFERASIROX]                     1
6  CCN(CC)CCN1C(=O)CN=C(c2ccccc2F)c2cc(Cl)ccc21 [FLURAZEPAM]                     0

We next turn to a different compound, shown below.
[in] Query: HepSE_hepatitis; subject: CC[C@@H](CO)NC(=O)[C@@H]1C=C2c3cccc4[nH]cc(c34)C[C@H]2N(C)C1 [METHYLERGONOVINE]
[out] 0

====

System: Hepatotoxicity;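 note: Hepatitis-related hepatic side effect score taken from the training data of DILIps, a prediction system for drug-induced liver injury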; note: call rule not given here
reported_metric: HepSE_hepatitis
# print the numeric value only

Solved entries (count: 7):
> print(dat)
                                   compound  reported.metric  observed.measurement
1  COc1c(N2C[C@@H]3CCCN[C@@H]3C2)c(F)cc2c(=O)c(C(=O)O)cn(C3CC3)c12  HepSE_hepatitis                     1
2  CC(=O)N[C@H]1[C@H]([C@H](O)[C@H](O)CO)OC(C(=O)O)=C[C@@H]1N=C(N)N  HepSE_hepatitis                     0
3  Cc1c(C)c2c(c(C)c1O)CCC(C)(COc1ccc(CC3SC(=O)NC3=O)cc1)O2 (stereo not drawn)  HepSE_hepatitis                     1
4  COc1cc([C@@H]2c3cc4c(cc3[C@H](O)[C@H]3COC(=O)[C@H]23)OCO4)cc(OC)c1OC  HepSE_hepatitis                     0
5  CCC1(c2ccccc2)NC(=O)N(C)C1=O (stereo not drawn)  HepSE_hepatitis                     1
6  CCCCCOC(=O)Nc1nc(=O)n([C@@H]2O[C@H](C)[C@@H](O)[C@H]2O)cc1F  HepSE_hepatitis                     1
7  CCNC(=O)CCC/C=C\C[C@@H]1[C@@H](/C=C/[C@@H](O)CCc2ccccc2)[C@H](O)C[C@@H]1O  HepSE_hepatitis                     0

We next turn to a different compound, shown below.
[in] Query: HepSE_hepatitis; subject: CCOc1ccccc1OCCN[C@H](C)Cc1ccc(OC)c(S(N)(=O)=O)c1
[out] 0
